Target: recombinant soluble homotrimeric HA of A/common magpie/Hong Kong/5052/07 (H5N1) (Influenza A virus A/common magpie/Hong Kong/5052/2007(H5N1))
Assay: HA microarray, BCC supernatant
Settings: remark: other sources report otherwise
Attribute Measured: Trimeric HA Binding: RLU (RLU)
Numbers only, in RLU.

{"columns": ["Binder", "Numeric Readout"],
 "data": [
  ["TCN-521 (3280_D18) (antibody, V domains shown) VH: EVQLVQSGGGLVQPGGSLRLACVVSGFTVTSNYITWVRQAPGKGLEWVSVIYSHGRAYYSASVNGRFTISRHTSKNTVYLEMNSLRPEDTAVYYCAGGGLVGGYDEYFFDYWGQGTLATVSS VL: ETVLTQSPGTLSLTPGERATLSCRVGQSVSGSHLAWYQQKPGQAPRLLIYGASSRATGIPDRFGGSVSGTDFTLTISRLEPEDSAVYYCQQYGDSRYTFGQGTKLEIK", 13500],
  ["TCN-551 (5243_D01) (antibody, V domains shown) VH: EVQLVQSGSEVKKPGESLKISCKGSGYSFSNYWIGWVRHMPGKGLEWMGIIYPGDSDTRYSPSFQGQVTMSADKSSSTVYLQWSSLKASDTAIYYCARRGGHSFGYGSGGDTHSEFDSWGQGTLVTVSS VL: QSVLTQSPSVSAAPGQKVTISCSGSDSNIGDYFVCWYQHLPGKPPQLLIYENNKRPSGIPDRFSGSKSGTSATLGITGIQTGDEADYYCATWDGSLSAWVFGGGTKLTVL", 45700]
]}

Return Trimeric HA Binding: RLU for the following binder: TCN-539 (5056_A08) (antibody, V domains shown) VH: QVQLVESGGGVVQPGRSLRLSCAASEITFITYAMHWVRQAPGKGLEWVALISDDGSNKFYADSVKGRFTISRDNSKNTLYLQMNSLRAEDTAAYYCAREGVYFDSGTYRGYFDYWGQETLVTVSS VL: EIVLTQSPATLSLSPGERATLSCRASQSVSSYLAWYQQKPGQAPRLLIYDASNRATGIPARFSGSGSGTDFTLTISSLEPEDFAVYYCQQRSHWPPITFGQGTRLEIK
3960
